Molecular target: T1, FPR1 (UniProt P21462 1-350, limits assumed)
T1 sequence (looked up): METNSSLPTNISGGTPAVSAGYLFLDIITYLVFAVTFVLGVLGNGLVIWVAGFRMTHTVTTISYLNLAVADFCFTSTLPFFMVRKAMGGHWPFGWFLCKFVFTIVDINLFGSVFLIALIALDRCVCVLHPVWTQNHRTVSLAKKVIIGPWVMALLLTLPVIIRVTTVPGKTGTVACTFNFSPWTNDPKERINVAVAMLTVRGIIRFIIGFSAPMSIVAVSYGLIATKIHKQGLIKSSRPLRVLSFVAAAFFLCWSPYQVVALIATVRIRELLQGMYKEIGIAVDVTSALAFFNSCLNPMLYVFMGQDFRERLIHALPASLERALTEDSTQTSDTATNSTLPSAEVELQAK
Assay: cell-based or functional assay
Readout Label: EC50 for [Ca2+]

For the binder shown here, MRYRYM (HELM PEPTIDE1{[ac].M.R.Y.R.Y.[dM].[am]}$$$$V2.0; SMILES CSCC[C@H](NC(C)=O)C(=O)N[C@@H](CCCNC(=N)N)C(=O)N[C@@H](Cc1ccc(O)cc1)C(=O)N[C@@H](CCCNC(=N)N)C(=O)N[C@@H](Cc1ccc(O)cc1)C(=O)N[C@H](CCSC)C(N)=O) [peptide of SEQ ID NO 49] , give the reported EC50 for [Ca2+]. > 10 µM

Reported EC50 for [Ca2+] for WRYKYM (HELM PEPTIDE1{W.R.Y.K.Y.[dM].[am]}$$$$V2.0; N-terminus assumed; SMILES CSCC[C@@H](NC(=O)[C@H](Cc1ccc(O)cc1)NC(=O)[C@H](CCCCN)NC(=O)[C@H](Cc1ccc(O)cc1)NC(=O)[C@H](CCCNC(=N)N)NC(=O)[C@@H](N)Cc1c[nH]c2ccccc12)C(N)=O) [peptide of SEQ ID NO 35] : what is it? > 10 µM

Could you tell me which EC50 for [Ca2+] is on file for RMRYKYM (HELM PEPTIDE1{[ac].R.M.R.Y.K.Y.[dM].[am]}$$$$V2.0; SMILES CSCC[C@H](NC(=O)[C@H](CCCNC(=N)N)NC(C)=O)C(=O)N[C@@H](CCCNC(=N)N)C(=O)N[C@@H](Cc1ccc(O)cc1)C(=O)N[C@@H](CCCCN)C(=O)N[C@@H](Cc1ccc(O)cc1)C(=O)N[C@H](CCSC)C(N)=O) [peptide of SEQ ID NO 39] ? > 10 µM
